TEST_TARGET: Receptor tyrosine-protein kinase erbB-2 (Homo sapiens, UniProt P04626)
Sequence (P04626 whole entry): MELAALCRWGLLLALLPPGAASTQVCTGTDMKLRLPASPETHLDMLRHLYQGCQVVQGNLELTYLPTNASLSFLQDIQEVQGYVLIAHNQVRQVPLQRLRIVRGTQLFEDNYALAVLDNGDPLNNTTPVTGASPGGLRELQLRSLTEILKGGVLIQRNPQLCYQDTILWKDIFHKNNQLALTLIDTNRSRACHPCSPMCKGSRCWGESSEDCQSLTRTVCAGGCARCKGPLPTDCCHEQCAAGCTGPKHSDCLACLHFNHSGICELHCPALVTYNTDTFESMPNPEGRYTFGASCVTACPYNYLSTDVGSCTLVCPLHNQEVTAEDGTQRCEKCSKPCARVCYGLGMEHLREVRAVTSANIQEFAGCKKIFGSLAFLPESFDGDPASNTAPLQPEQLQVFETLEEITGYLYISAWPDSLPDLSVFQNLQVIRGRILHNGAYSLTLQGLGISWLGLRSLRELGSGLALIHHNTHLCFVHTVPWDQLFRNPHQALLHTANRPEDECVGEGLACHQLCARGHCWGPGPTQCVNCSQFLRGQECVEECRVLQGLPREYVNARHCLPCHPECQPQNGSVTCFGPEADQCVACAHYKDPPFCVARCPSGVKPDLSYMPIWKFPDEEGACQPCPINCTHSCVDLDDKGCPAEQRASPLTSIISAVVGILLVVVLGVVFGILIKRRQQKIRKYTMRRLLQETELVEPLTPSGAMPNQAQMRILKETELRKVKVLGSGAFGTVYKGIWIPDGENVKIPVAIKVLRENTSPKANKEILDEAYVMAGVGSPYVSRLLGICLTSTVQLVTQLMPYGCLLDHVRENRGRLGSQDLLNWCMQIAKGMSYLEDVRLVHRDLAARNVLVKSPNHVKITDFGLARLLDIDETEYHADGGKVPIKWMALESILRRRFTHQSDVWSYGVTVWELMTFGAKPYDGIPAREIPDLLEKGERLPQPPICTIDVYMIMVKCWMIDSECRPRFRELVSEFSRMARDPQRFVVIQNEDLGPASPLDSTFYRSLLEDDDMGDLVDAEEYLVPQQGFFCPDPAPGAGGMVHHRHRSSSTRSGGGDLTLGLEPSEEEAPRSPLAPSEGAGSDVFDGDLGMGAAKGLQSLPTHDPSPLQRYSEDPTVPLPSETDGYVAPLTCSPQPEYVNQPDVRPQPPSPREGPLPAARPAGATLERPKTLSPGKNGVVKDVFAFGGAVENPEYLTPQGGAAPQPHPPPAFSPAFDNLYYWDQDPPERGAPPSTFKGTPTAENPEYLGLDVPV
METHOD_SUMMARY: Inhibition of recombinant human ErbB2 using poly (Glu, Tyr) 4:1 as substrate after 60 mins by ELISA

{"SMILES_ENTRY": "C[C@@H](Oc1ccc2[nH]nc(-c3nc4cc(N5CCN(C)CC5)ccc4[nH]3)c2c1)c1c(Cl)cncc1Cl", "IC50": "> 1000 nM"}

====

TEST_TARGET: Fibroblast growth factor receptor 4 (Homo sapiens, UniProt P22455)
Sequence (P22455 whole entry): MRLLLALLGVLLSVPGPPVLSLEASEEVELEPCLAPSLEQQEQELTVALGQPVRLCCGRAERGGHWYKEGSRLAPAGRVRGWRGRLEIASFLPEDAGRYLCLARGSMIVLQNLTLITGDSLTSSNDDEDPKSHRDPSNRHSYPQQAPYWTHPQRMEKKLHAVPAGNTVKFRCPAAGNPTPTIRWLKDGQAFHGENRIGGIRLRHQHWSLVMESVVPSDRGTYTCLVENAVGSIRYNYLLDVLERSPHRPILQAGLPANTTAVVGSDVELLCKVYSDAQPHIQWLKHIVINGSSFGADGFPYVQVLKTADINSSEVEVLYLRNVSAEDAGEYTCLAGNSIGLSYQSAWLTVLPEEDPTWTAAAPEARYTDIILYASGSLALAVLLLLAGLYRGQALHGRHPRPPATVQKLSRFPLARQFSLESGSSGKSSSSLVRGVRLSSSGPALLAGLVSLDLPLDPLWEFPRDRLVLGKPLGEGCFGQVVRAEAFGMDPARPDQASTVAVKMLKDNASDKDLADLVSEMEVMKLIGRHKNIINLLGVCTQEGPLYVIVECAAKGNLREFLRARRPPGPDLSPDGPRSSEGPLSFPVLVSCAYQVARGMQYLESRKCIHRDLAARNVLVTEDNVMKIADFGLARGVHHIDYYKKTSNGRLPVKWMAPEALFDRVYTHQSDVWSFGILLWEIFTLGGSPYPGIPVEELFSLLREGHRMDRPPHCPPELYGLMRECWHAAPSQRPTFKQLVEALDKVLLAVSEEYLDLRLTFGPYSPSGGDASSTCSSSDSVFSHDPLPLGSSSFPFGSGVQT
METHOD_SUMMARY: Inhibition of recombinant human FGFR4 using poly (Glu, Tyr) 4:1 as substrate after 60 mins by ELISA
MEASUREMENT_LABEL: IC50 (nM)

{"SMILES_ENTRY": "C[C@@H](Oc1ccc2[nH]nc(-c3nc4cc(N5CCN(C)CC5)ccc4[nH]3)c2c1)c1c(Cl)cncc1Cl", "TEST_TARGET": "Fibroblast growth factor receptor 4 (Homo sapiens, UniProt P22455)", "DATA_VALUE": 6.1}

====

Recorded Tmax for the following molecules
METHOD_SUMMARY: Tmax in Sprague-Dawley rat at 5 mg/kg, po
Format: ADME, organism-based
TEST_CONDITIONS: in vivo
MEASUREMENT_LABEL: Tmax (h)

{"SMILES_ENTRY": "C[C@@H](Oc1ccc2[nH]nc(-c3nc4cc(N5CCN(C)CC5)ccc4[nH]3)c2c1)c1c(Cl)cncc1Cl", "DATA_VALUE": 4}
{"SMILES_ENTRY": "C[C@@H](Oc1ccc2[nH]nc(-c3nc4cc(CCO)ccc4[nH]3)c2c1)c1c(Cl)cncc1Cl", "DATA_VALUE": 0.8}

====

TEST_TARGET: Epidermal growth factor receptor (Homo sapiens, UniProt P00533)
METHOD_SUMMARY: Inhibition of recombinant human EGFR using poly (Glu, Tyr) 4:1 as substrate after 60 mins by ELISA
pIC50: −log10 of the molar value.

{"SMILES_ENTRY": "C[C@@H](Oc1ccc2[nH]nc(-c3nc4cc(N5CCN(C)CC5)ccc4[nH]3)c2c1)c1c(Cl)cncc1Cl", "pIC50": "< 6.00"}

====

TEST_TARGET: UniProt:P09619
Sequence (P09619 whole entry): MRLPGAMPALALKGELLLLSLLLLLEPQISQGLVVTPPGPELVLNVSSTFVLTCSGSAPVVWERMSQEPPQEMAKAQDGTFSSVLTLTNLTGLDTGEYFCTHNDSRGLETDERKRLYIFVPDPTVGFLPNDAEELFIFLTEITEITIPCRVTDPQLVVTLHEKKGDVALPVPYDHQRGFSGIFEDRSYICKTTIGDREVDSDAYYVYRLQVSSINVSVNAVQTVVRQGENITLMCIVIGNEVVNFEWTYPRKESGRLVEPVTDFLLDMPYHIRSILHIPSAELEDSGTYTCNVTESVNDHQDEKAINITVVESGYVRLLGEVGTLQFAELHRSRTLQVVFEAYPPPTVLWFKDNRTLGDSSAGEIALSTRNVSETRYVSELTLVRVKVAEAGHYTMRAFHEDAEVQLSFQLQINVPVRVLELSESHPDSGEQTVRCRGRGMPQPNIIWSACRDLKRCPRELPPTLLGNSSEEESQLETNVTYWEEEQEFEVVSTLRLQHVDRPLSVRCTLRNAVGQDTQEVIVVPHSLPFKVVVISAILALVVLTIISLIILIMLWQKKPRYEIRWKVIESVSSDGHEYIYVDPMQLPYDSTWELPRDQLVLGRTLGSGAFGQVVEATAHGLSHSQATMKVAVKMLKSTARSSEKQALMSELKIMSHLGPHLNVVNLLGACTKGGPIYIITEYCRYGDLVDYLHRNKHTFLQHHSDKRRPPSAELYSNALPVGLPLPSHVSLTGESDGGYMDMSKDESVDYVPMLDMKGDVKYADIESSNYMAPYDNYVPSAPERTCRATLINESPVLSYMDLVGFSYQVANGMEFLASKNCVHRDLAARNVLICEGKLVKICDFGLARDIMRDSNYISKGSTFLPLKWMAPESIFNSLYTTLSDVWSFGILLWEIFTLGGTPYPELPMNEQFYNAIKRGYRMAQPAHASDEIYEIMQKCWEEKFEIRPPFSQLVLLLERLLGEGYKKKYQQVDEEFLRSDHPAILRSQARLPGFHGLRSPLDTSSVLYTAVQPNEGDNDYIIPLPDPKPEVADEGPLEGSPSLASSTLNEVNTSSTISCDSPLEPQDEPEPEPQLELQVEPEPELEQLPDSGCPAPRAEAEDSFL
METHOD_SUMMARY: Inhibition of recombinant human PDGFRbeta using poly (Glu, Tyr) 4:1 as substrate after 60 mins by ELISA

{"SMILES_ENTRY": "C[C@@H](Oc1ccc2[nH]nc(-c3nc4cc(N5CCN(C)CC5)ccc4[nH]3)c2c1)c1c(Cl)cncc1Cl", "IC50": "> 1000 nM"}

====

TEST_TARGET: Fibroblast growth factor receptor 1 (Homo sapiens)
Sequence (P11362 whole entry): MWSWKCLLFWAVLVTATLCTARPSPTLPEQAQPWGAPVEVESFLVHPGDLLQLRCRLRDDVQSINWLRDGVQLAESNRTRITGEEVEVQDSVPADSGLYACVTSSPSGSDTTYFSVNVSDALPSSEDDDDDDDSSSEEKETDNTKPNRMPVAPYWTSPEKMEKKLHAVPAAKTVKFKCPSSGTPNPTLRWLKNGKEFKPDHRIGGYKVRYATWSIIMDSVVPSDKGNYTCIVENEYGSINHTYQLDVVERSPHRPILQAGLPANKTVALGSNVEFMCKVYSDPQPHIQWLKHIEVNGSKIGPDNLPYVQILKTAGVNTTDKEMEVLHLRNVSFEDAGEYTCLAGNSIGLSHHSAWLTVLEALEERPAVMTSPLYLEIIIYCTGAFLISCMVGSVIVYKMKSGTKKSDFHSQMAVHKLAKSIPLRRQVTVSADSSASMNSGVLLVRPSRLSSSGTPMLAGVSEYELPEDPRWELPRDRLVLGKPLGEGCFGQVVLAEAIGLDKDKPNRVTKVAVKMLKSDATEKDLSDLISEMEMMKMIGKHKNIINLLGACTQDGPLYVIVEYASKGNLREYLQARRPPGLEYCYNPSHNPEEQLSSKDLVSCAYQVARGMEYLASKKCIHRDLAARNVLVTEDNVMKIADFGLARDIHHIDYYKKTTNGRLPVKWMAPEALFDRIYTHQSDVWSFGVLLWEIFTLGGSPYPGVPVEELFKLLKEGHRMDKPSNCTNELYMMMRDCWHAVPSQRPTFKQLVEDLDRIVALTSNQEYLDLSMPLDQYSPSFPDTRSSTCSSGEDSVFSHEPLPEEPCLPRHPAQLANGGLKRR
METHOD_SUMMARY: Inhibition of recombinant human FGFR1 using poly (Glu, Tyr) 4:1 as substrate after 60 mins by ELISA
Recorded IC50 for the following molecules

{"MOLECULE": "Fc1ccc2c(-c3nc4cc(N5CCC(N6CCCCC6)CC5)ccc4[nH]3)[nH]nc2c1", "TEST_TARGET": "Fibroblast growth factor receptor 1 (Homo sapiens)", "U": "nM", "CENSORING_OPERATOR": "=", "IC50": 20.3}
{"MOLECULE": "C[C@@H](Oc1ccc2[nH]nc(-c3nc4cc(N5CCN(C)CC5)ccc4[nH]3)c2c1)c1c(Cl)cncc1Cl", "TEST_TARGET": "Fibroblast growth factor receptor 1 (Homo sapiens)", "U": "nM", "CENSORING_OPERATOR": "=", "IC50": 0.9}
{"MOLECULE": "CC(Oc1ccc2[nH]nc(-c3nc4cc(N5CCN(C)CC5)ccc4[nH]3)c2c1)c1c(Cl)cncc1Cl (stereo not given)", "TEST_TARGET": "Fibroblast growth factor receptor 1 (Homo sapiens)", "U": "nM", "CENSORING_OPERATOR": "=", "IC50": 1}
{"MOLECULE": "C[C@H](Oc1ccc2[nH]nc(-c3nc4cc(N5CCN(C)CC5)ccc4[nH]3)c2c1)c1c(Cl)cncc1Cl", "TEST_TARGET": "Fibroblast growth factor receptor 1 (Homo sapiens)", "U": "nM", "CENSORING_OPERATOR": "=", "IC50": 9.4}
{"MOLECULE": "CC(Oc1ccc2[nH]nc(-c3nc4c(N5CCCCC5)cccc4[nH]3)c2c1)c1c(Cl)cncc1Cl (stereo not given)", "TEST_TARGET": "Fibroblast growth factor receptor 1 (Homo sapiens)", "U": "nM", "CENSORING_OPERATOR": ">", "IC50": 1000}

Provenance of the data: ChEMBL document CHEMBL3826910
